# Assay procedure: In vitro H2O hydrolysis and oxygen evolution catalyzed by LEAT protein under light
# Assay type: biochemical
# Parameters: key: +: similar O2 evolution activity as that of YFP; ++: higher O2 evolution activity than that of YFP by at least one order of magnitude; weak: lower activity than that of YFP by at least one order of magnitude
# Condition set: water hydrolysis and O2 evolution under light, relative to YFP

Molecule	O2 evolution activity
rfloRFP: red fluorescent protein from Ricordea florida (AY037773), SEQ ID NO: 42 (protein, listed as Ricordea florida) MSALKEEMKIKLTLVGVVNGHPFKIIGDGKGKPYEGSQELTLAVVEGGPLPFSYDILTTIVHYGNRAFVNYPKDIPDIFKQTCSGPGAGYSWQRTMSFEDGGVCTATSHIRVDGDTFNYDIHFMGADFPLNGPVMQKRTVKWEPSTEIMFQCDGLLRGDVAMSLLLKGGGHYRCDFKTIYKPKKNVKMPGYHFVDHCIEITSQQDDYNVVELYEGAVAHYSPLQKPCQAKA	++
rmueGFP: green fluorescent protein from Renilla muelleri (AY015996), SEQ ID NO: 44 (protein, listed as Renilla muelleri) MSKQILKNTCLQEVMSYKVNLEGIVNNHVFTMEGCGKGNILFGNQLVQIRVTKGAPLPFAFDIVSPAFQYGNRTFTKYPNDISDYFIQSFPAGFMYERTLRYEDGGLVEIRSDINLIEDKFVYRVEYKGSNFPDDGPVMQKTILGIEPSFEAMYMNNGVLVGEVILVYKLNSGKYYSCHMKTLMKSKGVVKEFPSYHFIQHRLEKTYVEDGGFVEQHETAIAQMTSIGKPLGSLHEWV	++
efasCFP: cyan fluorescent protein from Eusmilia fastigiata (DQ206397), SEQ ID NO: 36 (protein, listed as Echinopora forskaliana) MSFSKQVLNDVTMTYFMEGSVNGHDFTIEGEGTGKPYEGHQRFNLRVTKGAPLPFAVDILSAAFAYGNRCFTKYPKEIPDFFKQSLPEDMSWERTMTFEDGGIVAISAHIRLIGNRFEHKSKFVGVNFPADGPVMQRKTLGWEPSSEKMTPRDGILKGYVPSFLVLQGGGNYRCDYDTSYRAMKPVEMPGGHFIQHRIVRRDIKKDSNGNTWQIQEDAFAHNSEVPDSA	+
scubGFP: green fluorescent protein from Scolymia cubensis (AY037767), SEQ ID NO: 40 (protein, listed as Echinopora forskaliana) MQRAGMKVKEHMKIKLRMGGTVNGKHFAVNGTGDGYPYQGKQILKLIVEGSEPLPFAFDILSAAFQYGNRAFTEYPTEIADYFKQSFEFGEGFSWERSFTFEDGAICVATNDITMVGGEFQYDIRFDGLNFPEDGPVMQKKTVKWEPSTEIMYMQNGVLKGEVNMALLLQDKSHYRCDLKTTYKAKNNVPHPPGYHYVDHCIEILEERKDHVKLREHAKARSSLSPTSAKERKA	+
spisCP: non-fluorescent chromoprotein from Stylophora pistillata (DQ206398), SEQ ID NO: 38 (protein, listed as Echinopora forskaliana) MSHSKQALADTMKMTWLMEGSVNGHAFTIEGEGTGKPYEGKQSGTFRVTKGGPLPFAFDIVAPTLKYGFKCFMKYPADIPDYFKLAFPEGLTYDRKIAFEDGGCATATVEMSLKGNTLVHKTNFQGGNFPIDGPVMQKRTLGWEPTSEKMTPCDGIIKGDTIMYLMVEGGKTLKCRYENNYRANKPVLMPPSHFVDLRLTRTNLDKEGLAFKLEEYAVARVLEV	++
